# TESTED_TARGET: PI3K β (Homo sapiens)
# Construct: Full length p110 subunits of PI3K α, β and δ, N-terminally labeled with polyHis tag; polyHis (N)
# Sequence (P42338 whole entry): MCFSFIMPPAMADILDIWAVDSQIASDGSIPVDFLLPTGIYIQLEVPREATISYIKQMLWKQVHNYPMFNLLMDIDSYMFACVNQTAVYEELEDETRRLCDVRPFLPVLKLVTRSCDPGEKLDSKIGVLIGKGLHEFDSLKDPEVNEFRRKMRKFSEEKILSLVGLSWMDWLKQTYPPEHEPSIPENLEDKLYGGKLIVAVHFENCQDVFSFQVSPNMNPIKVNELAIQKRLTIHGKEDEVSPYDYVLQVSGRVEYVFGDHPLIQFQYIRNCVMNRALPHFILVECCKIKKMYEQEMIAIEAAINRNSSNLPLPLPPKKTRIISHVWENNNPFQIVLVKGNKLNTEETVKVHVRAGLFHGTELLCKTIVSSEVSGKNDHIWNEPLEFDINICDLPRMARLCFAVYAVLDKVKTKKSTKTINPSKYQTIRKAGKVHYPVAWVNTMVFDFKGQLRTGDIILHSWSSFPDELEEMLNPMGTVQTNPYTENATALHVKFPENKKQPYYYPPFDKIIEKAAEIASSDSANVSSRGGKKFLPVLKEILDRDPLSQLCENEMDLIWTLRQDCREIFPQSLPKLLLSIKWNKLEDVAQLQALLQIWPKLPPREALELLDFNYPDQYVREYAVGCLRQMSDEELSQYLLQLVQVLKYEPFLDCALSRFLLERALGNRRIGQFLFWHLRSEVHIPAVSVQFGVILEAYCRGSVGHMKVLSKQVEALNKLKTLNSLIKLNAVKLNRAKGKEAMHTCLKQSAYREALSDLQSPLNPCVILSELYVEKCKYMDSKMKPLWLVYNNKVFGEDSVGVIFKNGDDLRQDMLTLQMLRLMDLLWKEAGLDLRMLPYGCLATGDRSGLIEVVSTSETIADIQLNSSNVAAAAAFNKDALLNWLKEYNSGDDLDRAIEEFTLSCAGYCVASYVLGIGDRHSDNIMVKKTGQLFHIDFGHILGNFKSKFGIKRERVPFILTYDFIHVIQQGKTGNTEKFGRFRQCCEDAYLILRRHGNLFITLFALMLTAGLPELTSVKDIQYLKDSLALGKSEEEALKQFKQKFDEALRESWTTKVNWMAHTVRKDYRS
# Sequence (P27986 whole entry partner): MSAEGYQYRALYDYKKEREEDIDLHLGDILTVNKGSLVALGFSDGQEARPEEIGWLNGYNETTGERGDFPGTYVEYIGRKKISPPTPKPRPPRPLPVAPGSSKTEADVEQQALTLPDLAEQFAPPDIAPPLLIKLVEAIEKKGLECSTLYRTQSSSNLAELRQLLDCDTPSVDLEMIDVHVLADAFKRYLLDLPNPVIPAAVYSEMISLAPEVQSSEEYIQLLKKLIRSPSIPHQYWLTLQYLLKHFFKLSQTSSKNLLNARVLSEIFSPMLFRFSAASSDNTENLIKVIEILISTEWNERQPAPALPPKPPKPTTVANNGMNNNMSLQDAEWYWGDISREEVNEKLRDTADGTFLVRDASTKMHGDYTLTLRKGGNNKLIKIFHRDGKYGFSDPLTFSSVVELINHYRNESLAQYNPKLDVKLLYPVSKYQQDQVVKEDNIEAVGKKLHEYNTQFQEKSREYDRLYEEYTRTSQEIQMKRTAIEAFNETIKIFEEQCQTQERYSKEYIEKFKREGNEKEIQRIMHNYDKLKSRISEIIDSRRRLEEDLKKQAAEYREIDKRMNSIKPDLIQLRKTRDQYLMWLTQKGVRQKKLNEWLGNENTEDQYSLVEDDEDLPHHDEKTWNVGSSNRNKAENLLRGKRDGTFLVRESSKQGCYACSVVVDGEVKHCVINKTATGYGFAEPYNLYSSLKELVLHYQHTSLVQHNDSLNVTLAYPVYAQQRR
# PROCEDURE_TEXT: In vitro PI3 kinase enzyme assay (beta), ATP loss, bioluminescence
# APPLIED_CONDITIONS: read-out: PI3Kβ ATP loss IC50
ENDPOINT: pIC50
Answers are plain numbers, as −log10 of the molar value.

Quick batch: pIC50 for everything below.
1. CC(=O)Nc1nc2ccc(-c3ccnc(OC(C)C)n3)cc2s1 [Example 6]
2. CC(=O)Nc1nc2c(F)cc(-c3cncc(NS(=O)(=O)c4ccc(C(F)(F)F)cc4)c3)cc2s1 [Example 117]

1. 5.67
2. 7.25

---

# TESTED_TARGET: PI3K β (Homo sapiens)
# Construct: Full length p110 subunits of PI3K α, β and δ, N-terminally labeled with polyHis tag; polyHis (N)
# PROCEDURE_TEXT: In vitro PI3 kinase enzyme assay (beta), ATP loss, bioluminescence
# APPLIED_CONDITIONS: read-out: PI3Kβ ATP loss IC50
Assignment: determine reported IC50 for the given compounds.

Below, each entry is followed by its recorded IC50 result.
[[record]]
compound = "COc1cccc(-c2cccc3nc(NC(C)=O)sc23)c1 [Example 96]"
result = "> 40 µM"

[[record]]
compound = "CC(=O)Nc1nc2ccc(-c3ccnc(OC4CCN(C)CC4)n3)cc2s1 [Example 31]"
result = "> 40 µM"


Given the compound CC(=O)Nc1nc2ccc(-c3ccnc(OCCO)n3)cc2s1 [Example 104] , what is its reported IC50?
> 40 µM

---

# TESTED_TARGET: PI3K β (Homo sapiens)
# Construct: Full length p110 subunits of PI3K α, β and δ, N-terminally labeled with polyHis tag; polyHis (N)
# PROCEDURE_TEXT: In vitro PI3 kinase enzyme assay (beta), ATP loss, bioluminescence;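 also: purified p110β/p85 heterodimer with PtdIns(4,5)P2 as acceptor, incubated at room temperature, leftover ATP read by luminescence, inhibition scaled to compound-free wells with and without enzyme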
# APPLIED_CONDITIONS: read-out: PI3Kβ ATP loss IC50
ENDPOINT: IC50

Quick batch: IC50 for everything below.
1. CC(=O)Nc1nc2ccc(-c3ccnc(Cc4ccccc4)n3)cc2s1 [Example 13]
2. CC(=O)Nc1nc2ccc(-c3ccnc(OCc4cccnc4)n3)cc2s1 [Example 2]
3. COCCNc1nccc(-c2ccc3nc(N)sc3c2)n1 [Example 48]
4. Cc1nc2ccc(-c3cc(O)c(C(F)(F)F)nc3F)cc2s1 [Example 341]
5. CC(=O)Nc1nc2ccc(-c3ccnc(OCCc4ccccc4)n3)cc2s1 [Example 7]
6. COc1ccc(S(=O)(=O)Nc2cccc(-c3ccc4nc(NC(C)=O)sc4n3)c2)cc1 [Example 146]
7. COc1ccc(-c2ccc3nc(NC(C)=O)sc3c2)cn1 [Example 242]

["> 40 µM", "> 40 µM", "> 40 µM", "> 40 µM", "2.61 µM", "0.359 µM", "> 40 µM"]

Given the compound CC(=O)Nc1nc2ccc(-c3ccnc(NC(C)(C)c4ccccc4)n3)cc2s1 [Example 100] , what is its reported IC50?
0.595 µM

---

# TESTED_TARGET: PI3K α (Homo sapiens)
# Construct: Full length p110 subunits of PI3K α, β and δ, N-terminally labeled with polyHis tag; polyHis (N)
# PROCEDURE_TEXT: In vitro PI3 kinase enzyme assay (alpha), ATP loss, bioluminescence
# APPLIED_CONDITIONS: read-out: PI3Kα ATP loss IC50
pIC50: −log10 of the molar value.
Entry flag: Y if pIC50 reaches 7; N if it does not.

[[record]]
line_notation = "CC(=O)NC(C)(C)c1ccc(S(=O)(=O)Nc2cc(-c3ccc4nc(N)sc4c3)cnc2Cl)cc1"
tested_target = "PI3K α (Homo sapiens)"
class_assignment = "Y"

[[record]]
line_notation = "CC(=O)Nc1nc2ccc(-c3cncc(NS(=O)(=O)c4ccc(C(C)(C)C)cc4)c3)cc2s1"
tested_target = "PI3K α (Homo sapiens)"
class_assignment = "Y"

[[record]]
line_notation = "CC(=O)Nc1nc2ccc(-c3ccnc(OCCc4ccccc4)n3)cc2s1"
tested_target = "PI3K α (Homo sapiens)"
class_assignment = "N"

[[record]]
line_notation = "CC(=O)Nc1nc2ccc(-c3cnc(Cl)c(NS(=O)(=O)c4cccs4)c3)cc2s1"
tested_target = "PI3K α (Homo sapiens)"
class_assignment = "Y"

[[record]]
line_notation = "CC(=O)Nc1nc2ccc(-c3ccnc(NCc4ccccc4)n3)cc2s1"
tested_target = "PI3K α (Homo sapiens)"
class_assignment = "N"

[[record]]
line_notation = "CC(=O)Nc1nc2ccc(-c3ccnc(N(C)C)n3)cc2s1"
tested_target = "PI3K α (Homo sapiens)"
class_assignment = "N"

[[record]]
line_notation = "CC(=O)Nc1nc2ccc(-c3ccnc(Sc4ccc(C)c(C)c4)n3)cc2s1"
tested_target = "PI3K α (Homo sapiens)"
class_assignment = "Y"

[[record]]
line_notation = "Cc1cc(F)ccc1S(=O)(=O)Nc1cc(-c2ccc3nc(N)sc3c2)cnc1Cl"
tested_target = "PI3K α (Homo sapiens)"
class_assignment = "Y"

[[record]]
line_notation = "CC(C)(O)c1ccc(S(=O)(=O)Nc2cc(-c3ccc4nc(N)sc4c3)cnc2Cl)cc1"
tested_target = "PI3K α (Homo sapiens)"
class_assignment = "Y"


# ---- query compound ----
State whether the measured pIC50 reaches 7, counting equality as reaching it, for `CC(=O)Nc1nc2ccc(-c3cnc(Cl)c(OC(F)F)c3)cc2s1`
Y

---

Assignment: determine reported IC50 for the given compounds.
# TESTED_TARGET: PI3K α (Homo sapiens, UniProt P42336)
# Construct: Full length p110 subunits of PI3K α, β and δ, N-terminally labeled with polyHis tag; polyHis (N)
# Sequence (P42336 whole entry, species assumed, one chain of several): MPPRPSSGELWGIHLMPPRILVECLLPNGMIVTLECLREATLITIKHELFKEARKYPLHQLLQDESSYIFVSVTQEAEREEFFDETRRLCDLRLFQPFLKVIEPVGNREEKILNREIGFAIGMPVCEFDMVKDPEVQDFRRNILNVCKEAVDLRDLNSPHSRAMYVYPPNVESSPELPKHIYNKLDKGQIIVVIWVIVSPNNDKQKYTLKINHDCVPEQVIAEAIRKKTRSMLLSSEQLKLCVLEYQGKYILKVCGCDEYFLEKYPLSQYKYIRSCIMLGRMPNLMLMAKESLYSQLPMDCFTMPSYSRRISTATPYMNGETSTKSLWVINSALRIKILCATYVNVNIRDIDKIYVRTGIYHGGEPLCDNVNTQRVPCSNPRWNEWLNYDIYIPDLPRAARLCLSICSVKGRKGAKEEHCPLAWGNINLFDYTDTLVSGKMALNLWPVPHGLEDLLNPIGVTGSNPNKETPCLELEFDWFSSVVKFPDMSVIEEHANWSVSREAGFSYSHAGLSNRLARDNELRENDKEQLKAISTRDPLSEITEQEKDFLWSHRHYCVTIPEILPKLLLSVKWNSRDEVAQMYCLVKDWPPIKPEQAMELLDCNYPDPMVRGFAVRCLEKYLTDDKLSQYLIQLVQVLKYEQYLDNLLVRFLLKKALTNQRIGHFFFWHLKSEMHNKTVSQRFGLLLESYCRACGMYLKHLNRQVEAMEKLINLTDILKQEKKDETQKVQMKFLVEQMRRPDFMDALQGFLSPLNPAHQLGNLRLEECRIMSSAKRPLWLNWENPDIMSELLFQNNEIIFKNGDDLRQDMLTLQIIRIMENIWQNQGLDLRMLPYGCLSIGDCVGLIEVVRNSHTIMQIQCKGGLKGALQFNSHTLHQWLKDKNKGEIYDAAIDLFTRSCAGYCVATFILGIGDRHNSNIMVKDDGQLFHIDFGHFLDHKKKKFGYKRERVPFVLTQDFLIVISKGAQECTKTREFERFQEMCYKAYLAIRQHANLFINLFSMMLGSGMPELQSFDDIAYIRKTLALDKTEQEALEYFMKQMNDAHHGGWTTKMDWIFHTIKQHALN
# PROCEDURE_TEXT: In vitro PI3 kinase enzyme assay (alpha), ATP loss, bioluminescence
# APPLIED_CONDITIONS: read-out: PI3Kα ATP loss IC50
Give bare numbers, in nM.

Below, each entry is followed by its recorded IC50 result.
[[record]]
line_notation = "COc1ccncc1-c1ccc2nc(NC(C)=O)sc2c1"
numeric_value = 73.5

[[record]]
line_notation = "CC(=O)Nc1nc2ccc(-c3ccnc(N(C)S(=O)(=O)c4ccc5ccccc5c4)n3)cc2s1"
numeric_value = 74


Quick batch: IC50 for everything below.
1. COc1cccc(COc2nccc(-c3ccc4nc(NC(C)=O)sc4c3)n2)c1
2. CC(=O)Nc1nc2ccc(-c3ccnc(NS(=O)(=O)c4ccccc4)n3)cc2s1
3. CNc1ncc(-c2ccc3nc(NC(C)=O)sc3c2)cc1NC(C)C

96.7
84.8
149
